# experimentalSystem: Aspartate--tRNA(Asp/Asn) ligase (Mycobacterium tuberculosis (strain ATCC 25618 / H37Rv))
# assayMethodText: Assay for Asp RNA synthetase-1 from Mycobacterium tuberculosis
# Type: functional
# Design: scale not given: in the data most compounds retested in dose-response had high values
# assaySetup: 30 µM
measuredEndpoint: Percent Effect (%)

> print(dat)
                                   compound  reportedmeasurement
1  CC(C)c1nccn1-c1cccc(C2CCCN(C3CCCC3)C2)n1 (centres undefined)                 3.46
2  CC(Cc1ccco1)NC(=O)Nc1ccc(N2CCOCC2)nc1 (centres undefined)                -3.59
3  CCNc1cc2c(nn1)CCN(C(=O)c1cccc3c1OCCO3)C2                 7.68
4  O=C(CS(=O)(=O)CC1CCCCC1)NC1CCCCNC1=O (centres undefined)                -4.37

---

Quick list: Percent Effect per entry.
# experimentalSystem: Aspartate--tRNA(Asp/Asn) ligase (Mycobacterium tuberculosis (strain ATCC 25618 / H37Rv)) (UniProt P9WFW3)
# assayMethodText: Assay for Asp RNA synthetase-1 from Mycobacterium tuberculosis
# Assay type: functional
# Set-up: scale not given: in the data most compounds retested in dose-response had high values
# assaySetup: 30 µM
measuredEndpoint: Percent Effect (%)

> print(dat)
                                   compound  reportedmeasurement
1   O=C(NCc1cn2c(n1)CN(CC1CCOCC1)CC2)C1CCC1                0.662
2  Nc1cc(N2CCCC2c2cnccn2)ncn1 (stereo not given)                 6.36
3  Cc1nccn1C1CCCN(C(=O)c2ccc3c(c2)COC3)C1 (stereo not given)                -1.72
4  CCc1noc(C)c1C(=O)N1CCCC1Cn1cc(C)cn1 (stereo not given)                 4.02
5  Cc1cc(C(=O)N2C[C@@H](C(=O)O)[C@H](c3ccccc3C)C2)c(C)o1                 6.11

---

# experimentalSystem: Aspartate--tRNA(Asp/Asn) ligase (Mycobacterium tuberculosis (strain ATCC 25618 / H37Rv)) (UniProt P9WFW3)
# Sequence (whole entry): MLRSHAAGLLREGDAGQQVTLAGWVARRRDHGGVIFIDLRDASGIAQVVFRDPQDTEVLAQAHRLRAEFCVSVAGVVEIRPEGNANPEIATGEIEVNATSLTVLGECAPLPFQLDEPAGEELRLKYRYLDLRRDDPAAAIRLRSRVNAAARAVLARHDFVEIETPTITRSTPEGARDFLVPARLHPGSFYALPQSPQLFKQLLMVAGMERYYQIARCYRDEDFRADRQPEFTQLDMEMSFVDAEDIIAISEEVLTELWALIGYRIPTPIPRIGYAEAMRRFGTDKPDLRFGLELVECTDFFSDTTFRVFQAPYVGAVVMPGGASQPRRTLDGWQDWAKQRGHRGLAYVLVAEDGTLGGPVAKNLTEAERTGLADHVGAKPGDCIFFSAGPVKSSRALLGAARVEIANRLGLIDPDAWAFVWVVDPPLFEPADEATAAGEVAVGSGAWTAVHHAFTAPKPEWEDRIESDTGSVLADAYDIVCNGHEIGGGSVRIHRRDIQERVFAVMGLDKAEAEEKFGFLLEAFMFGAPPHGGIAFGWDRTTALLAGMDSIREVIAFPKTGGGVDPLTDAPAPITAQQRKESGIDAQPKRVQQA
# assayMethodText: Assay for Asp RNA synthetase-1 from Mycobacterium tuberculosis
# Type: functional
# Parameters: scale not given: in the data most compounds retested in dose-response had high values
# assaySetup: 30 µM
measuredEndpoint: Percent Effect (%)

> print(dat)
                                    molecule  reportedmeasurement
 1       O=C(CN1CCC(c2ccnn2CCO)CC1)NCc1cccs1                -1.91
 2  Cc1cccc(CN2CC[C@@H]3[C@@H]2CCN3C(=O)c2ccno2)n1                  3.7
 3     CCOc1ccccc1-c1noc(CN(C)Cc2cnn(C)c2)n1                 2.13
 4  Cc1cc2c(cc1C)C(NCc1nnc3n1CCCCC3)CCCO2 (centres undefined)                0.212
 5  O=C(C1CCOCC1)N1C[C@@H]2C[C@@H](c3nc(C4CC4)cs3)O[C@@H]2C1                 2.07
 6  C1CC(c2noc(C3CC3)n2)CN(Cc2noc(C3CC3)n2)C1 (centres undefined)                -1.05
 7  CN(C)C(=O)N1CCC2(CCCN(Cc3cnn(C)c3)C2)C1 (centres undefined)               -0.168
 8  CCNC(=O)CCN1CCC(c2cc(N3CCOCC3)nc(C)n2)CC1                 -4.4
 9  Cc1ccc(CN2CCC3(CC(C(=O)NCC4CC4)=NO3)C2)cc1C (centres undefined)                 7.45
10  COc1cc(CNC(=O)Nc2cc(C(F)(F)F)c[nH]c2=O)ccn1                -3.59
11  CCC(CNC(=O)Nc1cnn(CC)c1)N1CCCC1 (centres undefined)                -2.08
12  COc1ncccc1NC(=O)C1CC(=O)N(Cc2ccccn2)C1 (centres undefined)                  1.2
13    CN(C)C1CCN(C(=O)NCc2ccccc2Cn2cncn2)CC1                -2.31
14            CCOCCCNC(=O)c1ccccc1S(C)(=O)=O                -2.28

---

# experimentalSystem: Aspartate--tRNA(Asp/Asn) ligase (Mycobacterium tuberculosis (strain ATCC 25618 / H37Rv)) (UniProt P9WFW3)
# assayMethodText: Assay for Asp RNA synthetase-1 from Mycobacterium tuberculosis
# Type: functional
# Set-up: scale not given: in the data most compounds retested in dose-response had high values
# assaySetup: 30 µM
measuredEndpoint: Percent Effect (%)

> print(dat)
                                   compound  measuredendpoint  reportedmeasurement
1  O=C(CCCOc1ccccc1Cl)N1CCCC(n2cncn2)C1 (stereo unspecified)    Percent Effect                 -3.9
2        CN(C(=O)CCNC(=O)NC1CCCCC1)c1ccccc1    Percent Effect                -1.38
3  Cc1nc(CN2CCCC(NCCOc3ccccc3)C2)no1 (stereo unspecified)    Percent Effect                -8.02
4  COc1cccc(CN(C)C(=O)CSc2ccc3c(c2)OCCO3)c1    Percent Effect                 0.12
5  Cc1csc(C2CCCN(C(=O)c3ccc(=O)n(C)n3)C2)n1 (stereo unspecified)    Percent Effect                 3.09
6  COCC(=O)N1CC[C@@H]2CN(Cc3cccc(Cl)c3)S(=O)(=O)[C@@H]2CC1    Percent Effect                 3.55

---

Quick list: Percent Effect per entry.
# experimentalSystem: Aspartate--tRNA(Asp/Asn) ligase (Mycobacterium tuberculosis (strain ATCC 25618 / H37Rv)) (UniProt P9WFW3)
# assayMethodText: Assay for Asp RNA synthetase-1 from Mycobacterium tuberculosis
# Assay type: functional
# Set-up: scale not given: in the data most compounds retested in dose-response had high values
# assaySetup: 30 µM
measuredEndpoint: Percent Effect (%)

> print(dat)
                                    molecule  measuredendpoint  reportedmeasurement
 1  CCc1noc(C(C)N2CCN(Cc3ncc(C(C)(C)C)o3)CC2)n1 (centres undefined)    Percent Effect                -1.28
 2  COc1cc(CN(C)C(=O)NCCC2CCCO2)ccc1SC (centres undefined)    Percent Effect                -3.98
 3  COCCNC(=O)[C@H]1CN(Cc2nccs2)C[C@H]2OCC[C@@H]12    Percent Effect                -4.08
 4       COc1ccc(CNCc2ccnc(N3CCCCC3)c2)cc1OC    Percent Effect                -2.15
 5  Cc1cc(CN2CC[C@H]3C[C@H](C(=O)N(C)C)O[C@@H]3C2)no1    Percent Effect              -0.0763
 6  O=S1(=O)c2ccccc2C2(CCN(Cc3ccccc3)C2)N1CC1CC1 (centres undefined)    Percent Effect                -4.07
 7  Cc1csc2ncc(-c3ccnc(N4CCN(C)CC4)n3)c(=O)n12    Percent Effect                 1.78
 8   Cc1ccc(CN2CCc3c(C(=O)N(C)C)nn(C)c3C2)s1    Percent Effect                 1.82
 9  O=C(N1CCCC1)N1CCc2ncnc(C3CCOC3)c2CC1 (centres undefined)    Percent Effect               -0.956
10  c1cn2c(n1)CN(CC1CC1)CC(CN1CCOCC1)C2 (centres undefined)    Percent Effect                 11.1
11  CN(C)Cc1nnc(C2CCN(c3nccc(N)n3)CC2)n1C1CC1    Percent Effect                 2.12
12  O=C(NCCn1ccnc1)N1CCCC1c1ccsc1 (centres undefined)    Percent Effect                -7.57
13  Cc1nc(-c2cccc(C(=O)O)c2)cc(C2CCN(C(C)C)C2)n1 (centres undefined)    Percent Effect                -4.63
14      O=C(c1ccoc1)N1CCCn2cnc(COCC3CC3)c2C1    Percent Effect                -5.91
15        O=C(CCNS(=O)(=O)c1ccccc1)NCc1ccoc1    Percent Effect                -2.82
16  CC(C)c1nccn1-c1cccc(C2CCCN2S(=O)(=O)N(C)C)n1 (centres undefined)    Percent Effect                 8.78
17  CCc1cnc2c(c1NCc1cccc(OC)c1)c(=O)n(C)c(=O)n2C    Percent Effect              -0.0729
18  O=C1CC(c2ccsc2)c2c(n(C3CCOCC3)[nH]c2=O)N1 (centres undefined)    Percent Effect                -2.53
19  CNS(=O)(=O)c1ccc(C(=O)N2CCCC2c2cnn(C)c2)o1 (centres undefined)    Percent Effect                -2.58
